// data source = ChEMBL document CHEMBL2440019

system: UniProt:P25100
Sequence (P25100 whole entry): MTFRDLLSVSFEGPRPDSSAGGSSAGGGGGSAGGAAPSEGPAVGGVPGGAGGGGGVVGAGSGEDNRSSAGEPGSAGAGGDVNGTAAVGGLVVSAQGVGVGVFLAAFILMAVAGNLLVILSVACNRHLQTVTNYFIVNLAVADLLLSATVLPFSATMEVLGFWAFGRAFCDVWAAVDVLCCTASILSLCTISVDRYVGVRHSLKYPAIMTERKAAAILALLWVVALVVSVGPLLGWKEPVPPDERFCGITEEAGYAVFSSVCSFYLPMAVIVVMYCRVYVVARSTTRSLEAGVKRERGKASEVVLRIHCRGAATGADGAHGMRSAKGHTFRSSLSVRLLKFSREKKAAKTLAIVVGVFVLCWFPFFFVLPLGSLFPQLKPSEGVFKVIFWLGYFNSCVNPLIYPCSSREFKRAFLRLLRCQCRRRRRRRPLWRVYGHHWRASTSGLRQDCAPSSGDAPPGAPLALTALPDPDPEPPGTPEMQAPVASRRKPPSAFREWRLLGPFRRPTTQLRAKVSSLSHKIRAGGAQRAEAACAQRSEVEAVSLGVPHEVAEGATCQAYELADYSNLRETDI

| structureSmilesString | Ki [µM] |
| --- | --- |
| COc1cc2c(NC3CCN(C(C)C)CC3)nc(N3CCC(F)(F)CC3)nc2cc1OCCCN1CCCC1 | 4.5 |

---

This listing pairs compounds with measured AUC(0-t) at 24 h.
assayRemarks: AUC (0 to 24 hrs) in Swiss albino mouse brain at 5 mg/kg, ip
Assay type: ADME, organism-based
Set-up: time < 24 hr, dose 5 mg/kg, route intraperitoneal

| structureSmilesString | AUC(0-t) at 24 h (ng·h/mL) |
| --- | --- |
| COc1cc2c(NC3CCN(C(C)C)CC3)nc(N3CCC(F)(F)CC3)nc2cc1OCCCN1CCCC1 | 412 |
| COc1cc2c(NC3CCN(C(C)C)CC3)nc(N3CCOCC3)nc2cc1OCCCN1CCCC1 | 721 |

---

This listing pairs compounds with measured Cmax.
assayRemarks: Cmax in Swiss albino mouse brain at 5 mg/kg, ip
Format: ADME, organism-based
Set-up: dose 5 mg/kg, route intraperitoneal

| structureSmilesString | Cmax |
| --- | --- |
| COc1cc2c(NC3CCN(C(C)C)CC3)nc(N3CCC(F)(F)CC3)nc2cc1OCCCN1CCCC1 | 68 ng/mL |
| COc1cc2c(NC3CCN(C(C)C)CC3)nc(N3CCOCC3)nc2cc1OCCCN1CCCC1 | 99 ng/mL |

---

system: Histamine H3 receptor (Homo sapiens)
Sequence (Q9Y5N1 whole entry): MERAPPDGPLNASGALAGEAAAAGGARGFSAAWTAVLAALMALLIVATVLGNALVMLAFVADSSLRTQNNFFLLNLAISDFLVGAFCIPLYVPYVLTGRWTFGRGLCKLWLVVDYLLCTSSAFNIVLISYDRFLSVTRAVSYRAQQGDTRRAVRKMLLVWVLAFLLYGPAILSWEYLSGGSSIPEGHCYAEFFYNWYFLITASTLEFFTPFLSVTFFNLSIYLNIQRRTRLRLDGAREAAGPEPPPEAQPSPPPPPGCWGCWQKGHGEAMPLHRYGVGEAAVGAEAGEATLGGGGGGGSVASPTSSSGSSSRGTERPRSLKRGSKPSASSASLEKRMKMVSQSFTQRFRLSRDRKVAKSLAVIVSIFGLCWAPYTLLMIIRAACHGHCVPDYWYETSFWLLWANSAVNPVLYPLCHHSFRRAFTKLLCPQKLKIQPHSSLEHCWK
pKi: −log10 of the molar value.
experimentalReadout: pKi

| structureSmilesString | experimentalReadout | endpointResult |
| --- | --- | --- |
| COc1cc2c(NC3CCN(C(C)C)CC3)nc(N3CCC(F)(F)CC3)nc2cc1OCCCN1CCCC1 | pKi | 7.35 |

---

system: Alpha-2C adrenergic receptor (Homo sapiens)
Sequence (P18825 whole entry): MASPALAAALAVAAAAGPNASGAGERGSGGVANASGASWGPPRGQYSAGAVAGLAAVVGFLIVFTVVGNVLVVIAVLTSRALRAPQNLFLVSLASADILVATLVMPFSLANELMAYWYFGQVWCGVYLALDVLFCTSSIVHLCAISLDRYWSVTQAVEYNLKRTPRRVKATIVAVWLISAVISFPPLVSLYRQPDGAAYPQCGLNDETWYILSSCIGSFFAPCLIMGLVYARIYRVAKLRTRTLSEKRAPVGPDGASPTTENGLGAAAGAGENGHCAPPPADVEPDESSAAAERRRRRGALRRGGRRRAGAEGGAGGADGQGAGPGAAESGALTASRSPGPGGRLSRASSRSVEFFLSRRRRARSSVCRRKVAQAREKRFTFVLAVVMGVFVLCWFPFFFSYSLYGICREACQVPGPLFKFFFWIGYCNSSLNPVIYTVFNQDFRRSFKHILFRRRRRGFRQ

| structureSmilesString | system | Ki |
| --- | --- | --- |
| COc1cc2c(NC3CCN(C(C)C)CC3)nc(N3CCC(F)(F)CC3)nc2cc1OCCCN1CCCC1 | Alpha-2C adrenergic receptor (Homo sapiens) | > 10 µM |

---

Observed IC50 values for Histone-lysine N-methyltransferase EHMT2 (Homo sapiens, UniProt Q96KQ7) are listed in what follows.

| structureSmilesString | IC50 / nM |
| --- | --- |
| COc1cc2c(NC3CCN(C(C)C)CC3)nc(C3CCOCC3)nc2cc1OCCCN1CCCC1 | 310 |
| COc1cc2c(NC3CCN(C4CC4)CC3)nc(N3CCC(F)(F)CC3)nc2cc1OCCCN1CCCC1 | 310 |
| COc1cc2c(NC3CCN(C4CC4)CC3)nc(N3CCS(=O)(=O)CC3)nc2cc1OCCCN1CCCC1 | 590 |

---

Observed pIC50 values for Histone-lysine N-methyltransferase EHMT2 (Homo sapiens, UniProt Q96KQ7) are listed in what follows.
pIC50: −log10 of the molar value.

| structureSmilesString | pIC50 |
| --- | --- |
| COc1cc2c(NC3CCN(C(C)C)CC3)nc(N3CCCCC3)nc2cc1OCCCN1CCCC1 | > 8.60 |
| COc1cc2c(NC3CCN(C(C)C)CC3)nc(C3CCCCC3)nc2cc1OCCCN1CCC(F)(F)CC1 | < 4.59 |
| COc1cc2c(NC3CCN(C(C)C)CC3)nc(C3CCOCC3)nc2cc1OCCCN1CCC(F)(F)CC1 | < 4.30 |
| COc1cc2c(NC3CCN(C(C)C)CC3)nc(N3CCCCCC3)nc2cc1OCCCN1CCCC1 | > 8.60 |
